meta.source: patent US20090232804A1

# ASSAY_TARGET: purified human von Willebrand factor (vWF) (human, UniProt P04275 764-2813)
# TEST: cell-based or functional assay
Measured EC50 accompanies every entry in the list below.
Give the quantity in nM, number only.

- humanized NMC-4 variant H9, L4 (IgG1) (antibody, V domains shown) VH: QVQLQESGPGLVKPSETLSLTCTVSGFSLTDYGVDWIRQPPGKGLEWIGMIWGDGSTDYNSALKSRVTISVDTSKNQFSLKLSSVTAADTAVYYCARDPADYGNYDYALDYWGQGTLVTVSS VL: DIQMTQSPSSLSASVGDRVTITCSASQDINKYLNWYQQKPGKAPKLLIFYTSSLHSGVPSRFSGSGSGTDYTLTISSLQPEDIATYYCQQYEKLPWTFGQGTKVEIK: 0.11

Proceeding to the next binder to report its EC50.
Q: Need EC50, item humanized NMC-4 variant H7, L5 (IgG1) (antibody, V domains shown) VH: QVQLQESGPGLVKPSETLSLTCTVSGFSLTDYGVDWIRQPPGKGLEWIGMIWGDGSTDYNSALKSRLTISKDTSKNQVSLKLSSVTAADTAVYYCVRDPADYGNYDYALDYWGQGTSLTVSS VL: DIQMTQSPSSLSASVGDRVTITCSASQDINKYLNWYQQKPGKAVKLLIFYTSSLHSGVPSRFSGSGSGTDYTLTISSLQPEDIATYYCQQYEKLPWTFGQGTKVEIK
A: 0.16
